Assay: Cytotoxicity against human MRC5 cells assessed as reduction in cell viability measured after 72 hrs by MTT assay
Type: toxicity, cell-based
readout: GI50 at 72 h

[
  {
    "chemicalSmiles": "CCOc1ccc(NS(=O)(=O)/C=C/c2c(OC)cc(OC)cc2OC)cc1",
    "readout": "GI50 at 72 h",
    "experimentalValue": "> 10 µM"
  }
]

* * *

Assay: Antiproliferative activity against human A2780 cells measured after 72 hrs by MTT assay
Assay type: functional
Details: A2780, 72 h
# log10(GI50) listing for each entry below
readout: log10(GI50) (log10 of the value in nM)

[
  {
    "molecule": "COc1cc(OC)c(/C=C/S(=O)(=O)Cc2cnc(OC)c(OC)c2)c(OC)c1",
    "log10(GI50)": 2.97
  },
  {
    "molecule": "CCOc1cnc(CS(=O)(=O)/C=C/c2c(OC)cc(OC)cc2OC)cn1",
    "log10(GI50)": 2.73
  },
  {
    "molecule": "COc1cc(OC)c(/C=C/S(=O)(=O)Nc2ccc(OC)nc2)c(OC)c1",
    "log10(GI50)": 2.58
  },
  {
    "molecule": "COc1cc(OC)c(/C=C/S(=O)(=O)Cc2cnc(OC)cn2)c(OC)c1",
    "log10(GI50)": 2.69
  },
  {
    "molecule": "CCOc1ccc(NS(=O)(=O)/C=C/c2c(OC)cc(OC)cc2OC)cc1",
    "log10(GI50)": 2.49
  },
  {
    "molecule": "COc1ccc(NS(=O)(=O)/C=C/c2c(OC)cc(OC)cc2OC)cc1",
    "log10(GI50)": 1.00
  },
  {
    "molecule": "COc1cc(OC)c(/C=C/S(=O)(=O)Cc2cnc(Cl)cn2)c(OC)c1",
    "log10(GI50)": 3.68
  },
  {
    "molecule": "COc1cc(OC)c(/C=C/S(=O)(=O)Cc2ccc(OC)c(NCC(=O)[O-])c2)c(OC)c1.[Na+] [RIGOSERTIB SODIUM]",
    "log10(GI50)": 1.60
  }
]
